biological target: T1, 4-1BB Fc (human, UniProt Q07011 24-183); assay: ELISA, 4-1BB Fc coated, VHH at 0.0005 nM
T1 construct: also called rh-41BB; 41BB-hFc
T1 sequence (Q07011 24-183): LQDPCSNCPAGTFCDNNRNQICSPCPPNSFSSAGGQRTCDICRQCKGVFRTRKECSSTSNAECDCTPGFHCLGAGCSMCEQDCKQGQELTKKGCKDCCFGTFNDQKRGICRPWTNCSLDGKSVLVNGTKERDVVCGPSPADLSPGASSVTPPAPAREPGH
Observed property: OD450

Binder | OD450
4-1BB-1 (VHH, not shown: small tags and cut ends) VHH: QVQLVESGGGLVQAGGSLRLSCAASENIFSFNAMAWYRQAPGKQRELVALITGDGTTKYADSVKGRFTIARLNAKNTVNLEMNSLKPEDTAVYTCAALRNSDRTSWGQGTQVTVSS | 0.065
4-1BB-36 (VHH, not shown: small tags and cut ends) VHH: EVQLVESGGGLVQPGGSLRLSCAASRRTFSSYTAGWFRQAPGKEREFVASIRWISGTTTYADSVNGRFTISRDIAKNTVYLQMNSLKPDDTAVYYCAVDLSSDNDYDYWGQGTQVTVSS | 0.071

[A] 4-1BB-56 (VHH, not shown: small tags and cut ends) VHH: QVQLVESGGGLVQTGGSLRLSCAASGRISTIDTMFWYRQTPGKERDWVAFIPKDGLPTYVDSVKGRFTVSRDNARNTVYLQMNGLKPEDTAVYYCAVDVQEDRMRTYWGQGTQVTVSS
[B] 4-1BB-9 (VHH, not shown: small tags and cut ends) VHH: QVQLVESGGGLVQAGGSLRLSCAASGSIFSYNAVAWYRQAPGKQRELVAVITSGGETTKYADSVKGRFTISRDITKNAVDLQMVSLKPEDTAVYTCAALRNSGSTSWGQGTQVTVSS
### Prompt Which item exceeds the other in OD450, A or B ? Returns: label corresponding to the selected item.
### Response A
(A: 0.181, B: 0.067)

Values from patent US20250376535A1
